- run-description: Concentrations of brassinosteroids in Arabidopsis strains by HPLC and GC-MS
- measurement-conditions: rot3/CYP90D1 (suppressed function of ROT3 and CYP90D1); ground part of plants at rosette formation
Provide the reported concentration of brassinosteroid, rot3/CYP90D1 of each item.
Give bare numbers, in ng/g.

Record excerpt, results attached:
| sample-smiles | reading-unit | experimental-result |
| --- | --- | --- |
| CC(C)[C@H](C)[C@@H](O)[C@H](O)[C@@H](C)[C@H]1CC[C@H]2[C@@H]3CC(=O)[C@H]4C[C@H](O)[C@H](O)C[C@]4(C)[C@H]3CC[C@]12C | ng/g | 0.020 |
| CC(C)[C@H](C)[C@@H](O)[C@H](O)[C@@H](C)[C@H]1CC[C@H]2[C@@H]3CC[C@H]4C[C@H](O)CC[C@]4(C)[C@H]3CC[C@]12C | ng/g | 0.38 |

We now examine a further compound.
Could you share which concentration of brassinosteroid, rot3/CYP90D1 value was measured for CC(C)[C@H](C)[C@@H](O)[C@H](O)[C@@H](C)[C@H]1CC[C@H]2[C@@H]3CC[C@H]4C[C@@H](O)CC[C@]4(C)[C@H]3CC[C@]12C ?
0.26
